# Test method notes: Acute toxicity in rat
# Assay type: organism-based
# Condition notes: in vivo
Response field label takes MET when LD50 is strictly below 200 mg/kg and NOT MET in all other cases.

> print(dat)
                                    molecule  label.class
 1    N#Cc1c(NC(=S)NC(=O)c2ccccc2)sc2c1CCCC2          MET
 2           N#Cc1c(-n2c(O)csc2=N)sc2c1CCCC2      NOT MET
 3  COc1cccc(-n2c(-c3ccccc3)nc3sc4c(c3c2=O)CCCC4)c1          MET
 4      COc1cccc(-n2nnc3sc4c(c3c2=O)CCCC4)c1          MET
 5          N#Cc1c(N2C(=O)C=CC2=O)sc2c1CCCC2      NOT MET
 6                       N#Cc1c(N)sc2c1CCCC2          MET
 7  COc1cccc(-n2c(=S)[nH]c3sc4c(c3c2=O)CCCC4)c1      NOT MET
 8           N#Cc1c(/N=C/c2ccccc2)sc2c1CCCC2      NOT MET
 9    N=c1oc(/C=C/c2ccccc2)nc2sc3c(c12)CCCC3      NOT MET
10        COc1cccc(NC(=O)c2c(N)sc3c2CCCC3)c1          MET
11   N=c1c2c3c(sc2nc(S)n1C(=O)c1ccccc1)CCCC3      NOT MET
12  COc1cccc(NC(=O)c2c(NC(=O)c3ccccc3)sc3c2CCCC3)c1      NOT MET
13     N#Cc1c(NC(=O)/C=C/c2ccccc2)sc2c1CCCC2          MET
14  O=C1CC2(CCCC2)CC(=O)N1CCCCN1CCN(c2ncccn2)CC1          MET
15  COc1cccc(NC(=O)c2c(NC(=O)/C=C/c3ccccc3)sc3c2CCCC3)c1      NOT MET
16  COc1cccc(-n2c(/C=C/c3ccccc3)nc3sc4c(c3c2=O)CCCC4)c1      NOT MET
17        N=c1oc(-c2ccccc2)nc2sc3c(c12)CCCC3      NOT MET
18  N#Cc1c(N2C(=S)N=C(c3ccccc3)OC2c2ccccc2)sc2c1CCCC2 (centres undefined)      NOT MET

----------
Parameter LD100 increase: see the listing below.
# Tested on: Rattus norvegicus
# Test method notes: Antiarrhythmic activity in aconitine-intoxicated iv dosed Ivanovas rat assessed as inhibition of ventricular dysfunction
# Assay type: functional, Heart
Endpoint name: LD100 increase (%)

> print(dat)
                                    molecule  unit.of.measure  meas.value
 1           N#Cc1c(-n2c(O)csc2=N)sc2c1CCCC2                %        82.1
 2  N#Cc1c(N2C(=S)N=C(c3ccccc3)OC2c2ccccc2)sc2c1CCCC2 (configuration not stated)                %          84
 3           N#Cc1c(/N=C/c2ccccc2)sc2c1CCCC2                %        73.6
 4    N=c1oc(/C=C/c2ccccc2)nc2sc3c(c12)CCCC3                %        80.1
 5  COc1cccc(-n2c(-c3ccccc3)nc3sc4c(c3c2=O)CCCC4)c1                %        70.1
 6               N#Cc1c(NC(=O)CCl)sc2c1CCCC2                %        73.1
 7  CCN(CC)CCNC(=O)c1ccc(N)cc1 [PROCAINAMIDE]                %          65
 8        N=c1oc(-c2ccccc2)nc2sc3c(c12)CCCC3                %       68.15
 9    N#Cc1c(NC(=S)NC(=O)c2ccccc2)sc2c1CCCC2                %          84
10  COc1cccc(NC(=O)c2c(NC(=O)/C=C/c3ccccc3)sc3c2CCCC3)c1                %        74.6
11      COc1cccc(-n2nnc3sc4c(c3c2=O)CCCC4)c1                %          75
12  COc1cccc(-n2c(=S)[nH]c3sc4c(c3c2=O)CCCC4)c1                %          76
13     N#Cc1c(NC(=O)/C=C/c2ccccc2)sc2c1CCCC2                %        77.5
14  COc1cccc(NC(=O)c2c(NC(=O)c3ccccc3)sc3c2CCCC3)c1                %        67.9
15                CCN(CC)CC(=O)Nc1c(C)cccc1C                %          65
16   N=c1c2c3c(sc2nc(S)n1C(=O)c1ccccc1)CCCC3                %        84.3
17  COc1cccc(-n2c(/C=C/c3ccccc3)nc3sc4c(c3c2=O)CCCC4)c1                %          82
